Assay System: TLR9 (Homo sapiens)
Sequence (Q9NR96 26-1032): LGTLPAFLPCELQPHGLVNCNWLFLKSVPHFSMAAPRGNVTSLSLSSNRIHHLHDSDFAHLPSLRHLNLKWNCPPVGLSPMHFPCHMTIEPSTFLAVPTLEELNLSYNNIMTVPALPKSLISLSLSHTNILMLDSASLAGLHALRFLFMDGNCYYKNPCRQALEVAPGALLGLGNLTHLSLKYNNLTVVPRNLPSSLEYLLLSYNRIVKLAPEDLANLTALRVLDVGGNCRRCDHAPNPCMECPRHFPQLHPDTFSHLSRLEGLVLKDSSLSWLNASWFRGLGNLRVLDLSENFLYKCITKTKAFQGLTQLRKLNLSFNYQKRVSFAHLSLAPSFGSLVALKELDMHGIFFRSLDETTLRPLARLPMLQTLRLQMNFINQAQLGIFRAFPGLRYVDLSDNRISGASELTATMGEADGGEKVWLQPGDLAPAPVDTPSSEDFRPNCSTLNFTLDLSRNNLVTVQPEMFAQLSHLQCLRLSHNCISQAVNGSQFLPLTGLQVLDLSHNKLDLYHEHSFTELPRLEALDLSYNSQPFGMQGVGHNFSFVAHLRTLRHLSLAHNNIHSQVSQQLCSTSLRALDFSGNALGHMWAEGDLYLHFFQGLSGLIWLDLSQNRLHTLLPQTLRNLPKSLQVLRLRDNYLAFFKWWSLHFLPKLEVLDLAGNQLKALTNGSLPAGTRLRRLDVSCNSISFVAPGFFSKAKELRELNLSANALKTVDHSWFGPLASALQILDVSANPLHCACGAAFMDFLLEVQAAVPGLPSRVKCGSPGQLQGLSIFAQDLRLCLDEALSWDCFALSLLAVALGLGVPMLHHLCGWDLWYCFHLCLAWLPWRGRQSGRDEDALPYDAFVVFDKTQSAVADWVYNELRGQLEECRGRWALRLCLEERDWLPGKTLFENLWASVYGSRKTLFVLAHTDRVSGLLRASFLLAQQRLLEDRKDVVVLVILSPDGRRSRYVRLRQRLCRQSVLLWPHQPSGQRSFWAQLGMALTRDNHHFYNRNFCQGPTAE
Method Summary: HEK293-Blue-hTLR-9 cells assay (SEAP reporter, ODN2006 stimulation)
Format: cell-based
Design: host or cells: HEK293 (HEK-Blue hTLR9)
Experimental Conditions: HEK293-Blue-hTLR9 cells, ODN2006, 20 hrs; read-out: HEK/hTLR9 IC50
Quantity Measured: IC50 (nM)

Look over these answered cases.
Cc1cc(N2Cc3ccc(N4CCNCC4)nc3[C@H](C)C2)c2cnn(C)c2n1: 113
C[C@H]1CN(c2ccnc3c2cnn3C)Cc2ccc(OC[C@@H]3CNCCN3C=O)cc21: 350

[I] Cc1cc(N2Cc3ccc(N4CCC(N(C)C)CC4)nc3[C@@H](C)C2)c2cnn(C)c2n1
[II] C[C@H]1CN(c2ccnc3c2cnn3C)Cc2ccc(N3C[C@@H]4CNCCN4C3=O)cc21
[in] Which value of IC50 is smaller, the one for I or the one for II ? API: response body contains the label of the selected item.
[out] I

###

Method Summary: Single dose pharmacokinetics (PK) study in male Wister-Han rats
Type: in vivo, rat
Experimental Conditions: rat, PO 10 mg/kg, plasma, read-out: PO AUC0-last
Entries and their measured AUC(0-t) follow.
Give your result in ng·h/mL as a bare value.

Look over these answered cases.
C[C@H]1CN(c2ccnc3c2cnn3C)Cc2ccc(OC[C@@H]3CNCCN3)cc21: 1410
CO[C@@H]1CN(c2ccc3c(c2)[C@@H](C)CN(c2ccnc4c2cnn4C)C3)C[C@H]1N: 16500
C[C@H]1CN(c2ccnc3c2cnn3C)Cc2ccc(N3CCNCC3)cc21: 7270
CO[C@@H]1CN(c2ccc3c(n2)[C@@H](C)CN(c2cc(C)nc4c2cnn4C)C3)C[C@H]1N: 394000

Moving on to the next compound.
[in] Param item = CO[C@@H]1CN(c2ccc3c(c2)[C@@H](C)CN(c2cc(C)nc4c2cnn4C)C3)C[C@H]1N ; retrieve measured AUC(0-t).
[out] 27500

###

Assay System: hERG channel (Homo sapiens, UniProt Q12809)
Construct: expressed in transfected cells; host or cells: CHO (CHOhERG)
Sequence (Q12809 whole entry): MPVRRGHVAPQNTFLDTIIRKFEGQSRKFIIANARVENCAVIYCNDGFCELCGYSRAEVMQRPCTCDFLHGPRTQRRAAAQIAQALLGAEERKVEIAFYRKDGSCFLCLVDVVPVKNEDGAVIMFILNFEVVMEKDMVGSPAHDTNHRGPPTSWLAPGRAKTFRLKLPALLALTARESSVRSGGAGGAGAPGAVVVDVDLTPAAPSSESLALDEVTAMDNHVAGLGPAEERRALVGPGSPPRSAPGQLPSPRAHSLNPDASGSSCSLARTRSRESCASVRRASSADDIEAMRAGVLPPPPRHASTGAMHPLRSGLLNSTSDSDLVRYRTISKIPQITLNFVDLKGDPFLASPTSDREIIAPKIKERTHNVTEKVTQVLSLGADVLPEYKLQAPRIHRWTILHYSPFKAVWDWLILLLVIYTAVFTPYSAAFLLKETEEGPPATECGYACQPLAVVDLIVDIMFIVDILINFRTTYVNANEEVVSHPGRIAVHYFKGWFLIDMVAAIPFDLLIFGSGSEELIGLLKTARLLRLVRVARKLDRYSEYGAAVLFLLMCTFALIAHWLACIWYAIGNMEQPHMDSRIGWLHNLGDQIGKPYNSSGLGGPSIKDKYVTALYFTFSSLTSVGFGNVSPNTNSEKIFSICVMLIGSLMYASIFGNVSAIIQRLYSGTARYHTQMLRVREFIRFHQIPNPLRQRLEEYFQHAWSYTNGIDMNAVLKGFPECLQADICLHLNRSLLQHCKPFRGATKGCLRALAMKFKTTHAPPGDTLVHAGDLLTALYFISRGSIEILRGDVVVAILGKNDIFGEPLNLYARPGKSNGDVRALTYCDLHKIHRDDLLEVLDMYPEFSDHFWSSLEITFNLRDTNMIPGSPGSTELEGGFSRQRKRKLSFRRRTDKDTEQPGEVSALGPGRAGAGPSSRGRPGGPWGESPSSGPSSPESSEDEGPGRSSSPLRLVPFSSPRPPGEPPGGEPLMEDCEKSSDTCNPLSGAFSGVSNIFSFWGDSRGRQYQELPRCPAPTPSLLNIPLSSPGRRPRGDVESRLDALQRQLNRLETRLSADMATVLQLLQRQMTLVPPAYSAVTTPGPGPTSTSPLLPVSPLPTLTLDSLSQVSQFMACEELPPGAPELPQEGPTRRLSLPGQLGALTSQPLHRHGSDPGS
Method Summary: hERG channel inhibition assay (patch-clamp, CHOhERG cells)
Format: cell-based
Experimental Conditions: safety ratio, hERG IC20 over HEK/hTLR8 IC50
Entries and their measured hERG IC20/TLR8 IC50 follow.

Look over these answered cases.
Cc1cc(N2Cc3cnc(O[C@@H]4C[C@H]5CNCCN5C4)cc3[C@@H](C)C2)c2cnn(C)c2n1: >625.0
C[C@H]1CN(c2ccnc3c2cnn3C)Cc2ccc(OC[C@@H]3CNCCN3C)cc21: >2000.0
C[C@H]1CN(c2ccnc3c2cnn3C)Cc2ccc(OC[C@@H]3CNCCN3)cc21: 1575.0
C[C@H]1CN(c2ccnc3c2cnn3C)Cc2ccc(N3CC4(CNCCO4)C3)cc21: >714.3
Cc1cc(N2Cc3cnc(OCCN4CCNCC4)cc3[C@@H](C)C2)c2cnn(C)c2n1: >625.0

[in] Param item = Cc1cc(N2Cc3ccc(OC[C@H]4CNCCN4)cc3[C@@H](C)C2)c2cnn(C)c2n1 ; retrieve measured hERG IC20/TLR8 IC50.
[out] 3250.0

[in] Proceed to C[C@H]1CN(c2ccnc3c2cnn3C)Cc2ccc(N3CCNCC3)cc21
[out] 3200.0

[in] Proceed to C[C@H]1CN(c2ccnc3c2cnn3C)Cc2ccc(N3C[C@@H]4CNCCN4C3=O)cc21
[out] >33333.3

[in] Proceed to C[C@H]1CN(c2ccnc3c2cnn3C)Cc2ccc(O[C@@H]3C[C@H]4CNCCN4C3)cc21
[out] >5000.0

[in] Proceed to Cc1cc(N2Cc3ccc(OC[C@@H]4CNCCN4)cc3[C@@H](C)C2)c2cnn(C)c2n1
[out] 4250.0

[in] Proceed to Cn1ncc2c(N3CCc4cc(N5CCNCC5)ccc4C3)ccnc21
[out] >178.6

[in] Proceed to C[C@H]1CN(c2ccnc3c2cnn3C)Cc2ccc(OCCN3CCNCC3)cc21
[out] >1428.6

[in] Proceed to C[C@H]1CN(c2ccnc3c2cnn3C)Cc2ccc(N3C[C@@]4(CCNC4)CC3=O)cc21 (single isomer, unassigned)
[out] >1666.7

[in] Proceed to CO[C@@H]1CN(c2ccc3c(c2)[C@@H](C)CN(c2ccnc4c2cnn4C)C3)C[C@H]1N
[out] 364.7

[in] Proceed to C[C@H]1CN(c2ccnc3c2cnn3C)Cc2ccc(N3CC4(CNC4)CC3=O)cc21
[out] >384.6

[in] Proceed to CO[C@H]1CN(c2cc3c(cn2)CN(c2cc(C)nc4c2cnn4C)C[C@@H]3C)CC[C@@H]1N
[out] 3450.0
